- System: SK-OV-3 ovarian
- Test method notes: NCI tumour cell line growth inhibition, 48 h
Lab note: compare TGI against 30 µM. Equal or greater, write criterion met. Smaller, write criterion not met.

Field: example entries. Status: answers known.
Molecule: O=C(NC(Cc1ccc(Cl)cc1)C(=O)O)c1ccc(I)cc1 (centres undefined)
Class name: criterion met
//
Molecule: O=C1CC(N2C(=O)/C(=C/C(Cl)=C\c3ccc([N+](=O)[O-])cc3)SC2=S)C(=O)N1c1ccc(O)cc1 (centres undefined)
Class name: criterion not met
//
Molecule: CN(C)CC1CCC/C(=C\c2ccccc2)C1=O (centres undefined)
Class name: criterion met
//
Molecule: O=C1CC2CC(CC3(CO3)C2)C1F (centres undefined)
Class name: criterion met

Inquiry: Can CCCCCCCCCCCCSC(=S)c1c(C)[nH]n(CCCCCCCCCCCC)c1=O be said to have TGI at or above 30 µM?
Reply text: criterion met

Inquiry: Determine whether this molecule has TGI no lower than 30 µM: O=C([CH-]C(=O)c1ccccc1)c1ccccc1.O=C([CH-]C(=O)c1ccccc1)c1ccccc1.O=C([CH-]C(=O)c1ccccc1)c1ccccc1.[Cl-].[Hf+4]
Reply text: criterion met

---

- Test system: TK-10 renal
- Test method notes: NCI tumour cell line growth inhibition, 48 h
Residues, ends and D or L forms follow the SMILES beside them. *: point of attachment. Cbz = O=C(OCc1ccccc1)*
Quantity name: GI50

// known answers, use as guide
Compound: Cc1ccccc1C(C(=O)NC1CCCCC1)N(C(=O)CNc1ncccc1F)c1cccc(F)c1 (centres undefined)
GI50: > 56.4 µM
--
Compound: CN(C)CCOc1ccccc1NC1=C(Cl)C(=O)C(Nc2ccccc2OCCN(C)C)=C(Cl)C1=O
GI50: 5.73 µM
--
Compound: CN(C)CCS(=O)(=O)Nc1cc(-c2ccc3ncc(C#N)c(Nc4ccc(F)c(Cl)c4)c3c2)cnc1Cl
GI50: 0.155 µM
--
Compound: Cc1ccccc1C(C(=O)NC1CCCCC1)N(C(=O)CNc1ccc(C#N)cc1)c1cccc(F)c1 (centres undefined)
GI50: 24 µM
--
Compound: C/C=C(\C)C(=O)O[C@H]1C=CC(=O)O[C@H]1COC(=O)[C@H](C)O
GI50: 10.8 µM

Could you report GI50 for every entry in the following list?
1. Cn1c(=O)c(Oc2ccc(F)cc2F)cc2cnc(NC3CCOCC3)nc21
2. CC(C)C[C@@H](C=O)NC(=O)[C@H](CC(C)C)NC(=O)[C@H](CC(C)C)NC(=O)OCc1ccccc1 (Cbz-Leu-Leu-Leu-aldehyde)
3. COc1ccc(NC(=O)c2ccc(NC3=C(Cl)C(=O)N(Cc4ccccc4)C3=O)cc2)c(OC)c1
4. CC(C)C(=O)c1c(C(F)(F)F)n([O-])c2ccccc2[n+]1=O

Reply text:
1: 18.6 µM; 2: 0.27 µM; 3: 22.8 µM; 4: 0.59 µM

---

- Tested on: EKVX NSCLC
- Test method notes: NCI tumour cell line growth inhibition, 48 h
Residues, ends and D or L forms follow the SMILES beside them. *: point of attachment. Cbz = O=C(OCc1ccccc1)*
Quantity name: GI50

Compound: Cc1ccccc1C(C(=O)NC1CCCCC1)N(C(=O)CNc1ccc(C#N)cc1)c1cccc(F)c1 (stereo unspecified)
GI50: 42.5 µM

Report GI50 for every entry below.
1. Cc1[nH]nc2ncc(C(=O)N3CCC[C@H]3c3ccc(Cl)cc3)cc12
2. COc1ccc(-c2cn(-c3cc(OC)c(OC)c(OC)c3)c(=O)[nH]2)cc1OC
3. COc1ccc(NC(=O)c2ccc(NC3=C(Cl)C(=O)N(Cc4ccccc4)C3=O)cc2)c(OC)c1
4. C=C1C(=O)O[C@H]2[C@H]1CC/C(CNC(=O)/C=C/c1ccccc1F)=C\CC[C@@]1(C)O[C@@H]21
5. CC(C)C[C@@H](C=O)NC(=O)[C@H](CC(C)C)NC(=O)[C@H](CC(C)C)NC(=O)OCc1ccccc1 (Cbz-Leu-Leu-Leu-aldehyde)
6. Cc1sc2c(c1C)C(c1ccc(Cl)cc1)=N[C@@H](CC(=O)NCCCN1CCN(C)CC1)c1nnc(C)n1-2

Reply text:
["79.8 µM", "> 100 µM", "64.9 µM", "1.89 µM", "0.682 µM", "> 34.6 µM"]
